Tested on: SR
Test method notes: NCI tumour cell line growth inhibition, 48 h
Active and inactive are the calls of the source. Cut-off read from the data, not from the text of the source: active = GI50 up to about 1.1 µM and inactive = higher.
Reported metric: GI50

Given the entry COC1(C)CP(=O)(OC(C)C)CC(C)=C1Cl (stereo not drawn) , report its measured GI50.
7.19 µM (inactive)

What value of GI50 has been reported for the following compound? "Cc1ccc(S(=O)(=O)N2CCCSCC2)cc1"
> 100 µM (inactive)

Report GI50 for COC(=O)/C=C/C(=O)C1C(C(=O)OC)C2(C(=O)OC)CCC1(C(=O)OC)N2 (stereo not drawn) please.
> 100 µM (inactive)

Quick one: GI50 for "Cc1nc2[nH]ncn2c(=O)c1CCO" ?
> 10 µM (inactive)

// returns reported GI50 for input CC(C)(Br)C1(O)CCCN1C(=O)c1ccccc1 (stereo not drawn)
> 100 µM (inactive)

Consider the compound shown here: "NC(=S)N1N=C2c3ccccc3CC[C@H]2[C@@H]1c1cccs1" What is its recorded GI50?
4.68 µM (inactive)

What value of GI50 has been recorded for this entry: CC(=O)OCC1OC(OCCCOP(=S)(OCCC#N)OCC2OC(n3ccc(N)nc3=O)C(OC(=O)c3ccccc3)C2OC(=O)c2ccccc2)C(OC(C)=O)C(OC(C)=O)C1OC(C)=O (stereo not drawn)
> 100 µM (inactive)

Would you mind telling me what GI50 value was observed for "COc1cccc2c1c1ccc3c(c1n2C)C(=O)C=CC3=O" ?
2.4 µM (inactive)

What value of GI50 has been recorded for this entry: CC(C)C(Nc1c2ccccc2[n+](C)c2ccccc12)C(=O)O (stereo not drawn)
> 100 µM (inactive)

Consider the compound shown here: CC1(C=O)CC(CCc2ccccc2)NC1Cc1ccc(O)cc1 (stereo not drawn) What is its recorded GI50?
12 µM (inactive)

Any idea what its GI50 is? The compound is CCCCC1=CC1(C#N)[N+](=O)[O-] (stereo not drawn)
33.3 µM (inactive)

I am curious: what GI50 value has been reported for "[O-][N+]1=C(c2ccccc2)COc2ccccc21" ?
47.5 µM (inactive)

Which GI50 reading was recorded for the compound CCOC1CC(=O)c2c(Br)sc(Br)c21 (stereo not drawn) ?
21.7 µM (inactive)

Fill blank: measured GI50 of the compound "C=CS(=O)(=O)CCN1CC1" is ____.
> 10 µM (inactive)

Quick one: GI50 for "O=C(/C=C/c1ccc(O)c(O)c1)OCCCOC(=O)/C=C/c1ccc(O)c(O)c1" ?
17.2 µM (inactive)

Which value of GI50 has been reported for COc1ccc(N)c(C(O)CCNC(C)=O)c1 (stereo not drawn) in the records?
> 100 µM (inactive)

Given "COc1cc(Cc2nccc3cc(OC)c(OC)cc23)c(C(C)=O)cc1OC" , state its recorded GI50.
> 750 µM (inactive)

Suppose we examine the compound "COC(=O)/C([Se]c1c(C)cc(C)cc1C)=C(\[Se]c1c(C)cc(C)cc1C)C(=O)OC" ; what GI50 value has been reported?
> 100 µM (inactive)

---

Test system: DU-145
Test method notes: NCI tumour cell line growth inhibition, 48 h
The source made the active and inactive calls. Cut-off read from the data, not from the text of the source: active = GI50 up to about 1.1 µM and inactive = higher.
Reported metric: GI50

Please tell me: GI50 of "Cc1nc2[nH]ncn2c(=O)c1CCO" , system DU-145?
> 10 µM (inactive)

Give DU-145 GI50 for "COc1ccc(-n2cnc3c2=NC(C)(C)NC=3C(N)=O)c(OC)c1"
> 100 µM (inactive)

What value of GI50 on DU-145 does "C/C(=N\NC(=O)/C(C#N)=C\c1ccc(N(CCC#N)CCC#N)cc1)c1ccccc1" have?
> 10 µM (inactive)

Provide the documented GI50 with DU-145 as the system for "COc1ccc(/C=C2\C[C@H]3[C@@H]4CCC5=CC(=O)CC[C@]5(C)[C@H]4CC[C@]3(C)C2=O)cc1OC"
41.2 µM (inactive)

// lookup GI50 | system=DU-145 | key= "Cc1ccc(/C=N/NS(=O)(=O)c2ccc(/C=C3\NC(=O)NC3=O)cc2)cc1"
> 100 µM (inactive)

Hello, I am looking for reported GI50 with DU-145 for Cc1ccc(O)c(C2=CC3=NNC(=O)C3C(c3cccc(Br)c3)C2)c1 (centres undefined) . Could you help?
29.2 µM (inactive)

Identify the measured GI50 of COc1cc2c(c3oc4c(O)cccc4c(=O)c13)CC(C(C)(O)CO)O2 (centres undefined) for DU-145.
> 100 µM (inactive)

What measured GI50 is associated with CC(=O)CC1=C(OC(C)C)C2(OCCO2)C1O (centres undefined) on DU-145?
> 100 µM (inactive)

Field: GI50 (DU-145). Entry: Nc1ncc2c(n1)-c1ccccc1OC2N1CCCC1 (centres undefined)
> 100 µM (inactive)

Checklist item: GI50 tested on DU-145, entry "Cn1ccc(C(=O)NCCCCCNC(=O)c2ccn(C)c(=O)c2O)c(O)c1=O" , value?
> 100 µM (inactive)

Lab request: please report GI50 under test system DU-145 for CCN1C(=O)c2cc(OC)c(OC)cc2C(=O)C12OC(=O)c1cc3c(cc12)OCO3 (centres undefined)
31.3 µM (inactive)

Look up GI50 with DU-145 for this compound: "O=C(CSc1nccc(=O)[nH]1)c1ccccc1"
> 100 µM (inactive)

Record "Cc1cc2cc3c(Cl)c(CCCl)c(C)nc3cc2c(Cl)c1CCCl" : what is its GI50 with DU-145?
21.6 µM (inactive)

Enter reported GI50 observed with DU-145 for "O=C(O)c1cnc2[nH]ccn2c1=O"
> 100 µM (inactive)

---

System: MDA-N
Test method notes: NCI tumour cell line growth inhibition, 48 h
Active and inactive are the calls of the source. Rule as the data show it: active = GI50 up to about 1.1 µM and inactive = higher.
Answer each item with its documented GI50.

Which GI50 is reported for this compound? CCOC(=O)CCC(NC(=O)c1ccc(Nc2cnc3cc(C(F)(F)F)ccc3n2)cc1)C(=O)OCC (stereo not given)
> 100 µM (inactive)

Returns the measured GI50 for the input compound. Input: Cc1ccc(C2SCC(=O)N2c2ccc(-c3ccc(-n4c(-c5ccccc5)nc5ccccc5c4=O)cc3)cc2)cc1 (stereo not given)
80 µM (inactive)

What does the data say about its GI50? Entry: "CCOC(=O)c1[nH]cc(C)c1-c1ccc2c(-c3ccccc3)nc3ccccc3n12"
2.66 µM (inactive)

// lookup GI50 for "CC(C)c1cccc(C(C)C)c1OS(=O)(=O)NC(=O)OC(C(F)(F)F)C(F)(F)F"
56.9 µM (inactive)

Report GI50 for "CCOC(=O)NN(C(=O)OCC)C(=C(C1=CCCCC1)N1CCOCC1)N(NC(=O)OCC)C(=O)OCC" please.
> 100 µM (inactive)

What does the record list as GI50 for Cc1ccc(C)c2c1CC(Cc1ccccc1C(=O)O)C2=O (stereo not given) ?
> 100 µM (inactive)

Fill in: GI50 of "C=CS(=O)(=O)CCN1CC1" is ___
> 10 µM (inactive)

If you can, please state the reported GI50 value of "Clc1ccc2c(NCCCCCCNc3ccnc4cc(Cl)ccc34)ccnc2c1" .
2.46 µM (inactive)

Give its GI50 value. Item: "O=c1[nH]c(=O)n(C/C=C/CBr)nc1Br"
14.1 µM (inactive)

Which GI50 value is on record for "CCOC(=O)c1ccc(C(=O)/C(C#N)=C2\CCCN2)n1C" ?
34 µM (inactive)

Record request: GI50 value, item COC1(C)/C=N/CC(C)(C)NC(=O)C(C)(OC)/C=N/CC(C)(C)NC1=O (stereo not given)
> 10 µM (inactive)

I'd like to know its GI50. The compound in question is "Cc1cc2oc3c(ccc(=O)n3C)c(=O)c2c(C)c1Cl"
52.8 µM (inactive)

Which GI50 is listed for "C/C(=N/NC(=S)Nc1ccc(Cl)cc1)c1cccc(/C(C)=N\NC(=S)Nc2ccc(Cl)cc2)n1" ?
17.1 µM (inactive)

Return reported GI50; argument: "O[C@H]1[C@H](O)[C@@H](Cn2nnc(-c3ccccc3)c2-c2ccccc2)OCO[C@@H]1Cn1nnc(-c2ccccc2)c1-c1ccccc1"
3.84 µM (inactive)

May I ask what GI50 has been recorded for "O=C(O)c1cnc2[nH]ccn2c1=O" ?
> 100 µM (inactive)

---

Tested on: SK-MEL-28
Test method notes: NCI tumour cell line growth inhibition, 48 h
The source made the active and inactive calls. Rule as the data show it: active = GI50 up to about 1.1 µM and inactive = higher.
Reported metric: GI50

What GI50 value was documented for this compound, "CCc1nc(N)nc(C(=O)NCCNC(=O)c2nc(N)nc(CC)c2C)c1C" ?
> 100 µM (inactive)

Form field: reported GI50 of "CC(C)c1cccc(C(C)C)c1OS(=O)(=O)NC(=O)OC(C(F)(F)F)C(F)(F)F"
> 100 µM (inactive)

Return reported GI50; argument: COC1(CC[C@H](C)COC2OC(CO)C(O)C(O)C2O)O[C@H]2C[C@H]3[C@@H]4CC=C5C[C@@H](OC6OC(CO)C(OC7OC(C)C(O)C(O)C7O)C(O)C6OC6OC(C)C(O)C(O)C6O)CC[C@]5(C)[C@H]4CC[C@]3(C)[C@H]2[C@@H]1C (some centres undefined)
3.77 µM (inactive)

# get_value(readout='GI50', item= CCCCC(N)CSSCC(N)CCCC (centres undefined) )
17.7 µM (inactive)

Requested read-out: GI50. Entry: "Cc1cc2nc3c(C#N)c4c(c(Nc5ccc(F)cc5)n3c2cc1C)CCC4"
> 100 µM (inactive)

GI50 lookup needed for "NCCOc1ccccn1" , thanks.
> 100 µM (inactive)

Query (compound): CC1(C=O)CC(CCc2ccccc2)NC1Cc1ccc(O)cc1 (centres undefined) ; field requested: GI50
22.1 µM (inactive)

Requested read-out: GI50. Entry: "CCCCCCCCC(=O)NCCN(CCN)C(=O)CCCCCCCC"
14.9 µM (inactive)

// returns reported GI50 for input "COc1cc(/C=C2\CCC/C(=C\c3ccc(O)c(OC)c3)C2=O)ccc1O"
3.41 µM (inactive)
